Source listed as ChEMBL document CHEMBL2176968.

# System: Mus musculus
# MEASUREMENT_DESCRIPTION: Toxicity in BALB/c mouse infected with multi-drug resistant Mycobacterium tuberculosis isolate 040 assessed as skin discoloration at 20 mg/kg, po qd administered 5 days per week during acute phase of infection measured after 20 days
# Format: organism-based
# Parameters: dose 20 mg/kg, route oral
# EXPERIMENTAL_SETUP: in vivo, 480 h
EXPERIMENTAL_ENDPOINT: Activity

Please review the following examples before continuing.
1. COc1ncccc1Nc1cc2nc3ccccc3n(-c3ccc(F)cc3)c-2c/c1=N\C(C)C = Toxic
2. COC1CCC(/N=c2\cc3n(-c4ccc(Cl)cc4)c4ccccc4nc-3cc2Nc2ccc(C)nc2)CC1 (configuration not stated) = Non-toxic
3. COc1ncccc1Nc1cc2nc3ccccc3n(-c3ccc(F)cc3)c-2c/c1=N\C1CCC(OC)CC1 (configuration not stated) = Toxic
4. CC(C)/N=c1\cc2n(-c3ccc(Cl)cc3)c3ccccc3nc-2cc1Nc1ccc(Cl)cc1 [CLOFAZIMINE] = Toxic
5. COc1ncccc1Nc1cc2nc3ccccc3n(-c3ccc(OC(F)(F)F)cc3)c-2c/c1=N\C1CCC(OC)CC1 (configuration not stated) = Non-toxic

Value of Activity reported for the compound COc1ncccc1Nc1cc2nc3ccccc3n(-c3ccc(Cl)cc3)c-2c/c1=N\C1CCOCC1 is Non-toxic

Value of Activity reported for the compound COc1ncccc1Nc1cc2nc3ccccc3n(-c3ccc(Cl)cc3)c-2c/c1=N\C1CCC(OC)CC1 (configuration not stated) is Non-toxic
